Measured Ki, listed per entry for reference.
Target Or System: D(1A) dopamine receptor (Rattus norvegicus)
Sequence (P18901 whole entry): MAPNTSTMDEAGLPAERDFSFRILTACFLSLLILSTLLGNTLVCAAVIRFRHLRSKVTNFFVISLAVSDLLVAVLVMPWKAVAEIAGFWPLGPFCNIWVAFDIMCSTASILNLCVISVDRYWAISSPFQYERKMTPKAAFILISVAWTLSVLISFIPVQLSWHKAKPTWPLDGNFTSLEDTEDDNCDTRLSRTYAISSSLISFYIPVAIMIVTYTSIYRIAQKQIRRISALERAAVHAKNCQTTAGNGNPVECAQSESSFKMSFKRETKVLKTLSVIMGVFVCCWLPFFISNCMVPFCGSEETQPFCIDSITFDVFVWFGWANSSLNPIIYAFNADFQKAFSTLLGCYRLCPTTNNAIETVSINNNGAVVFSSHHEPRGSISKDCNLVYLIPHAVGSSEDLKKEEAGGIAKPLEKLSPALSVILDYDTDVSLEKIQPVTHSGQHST
Test Method Notes: Binding affinity against Dopamine receptor D1 in rat radioligand
# output: bare number, implied unit nM

Ask: Can you share its Ki? I mean this molecule: Oc1cc2c3c(c1O)CC[C@@H]3CNC[C@@H]2c1ccccc1
Result: 24

Ask: Repeat for the following molecule: Oc1cc2c3c(c1O)CC[C@H]3CNC[C@@H]2c1ccccc1
Result: 1220

----------
Target Or System: D(1A) dopamine receptor (Homo sapiens, UniProt P21728)
Sequence (P21728 whole entry): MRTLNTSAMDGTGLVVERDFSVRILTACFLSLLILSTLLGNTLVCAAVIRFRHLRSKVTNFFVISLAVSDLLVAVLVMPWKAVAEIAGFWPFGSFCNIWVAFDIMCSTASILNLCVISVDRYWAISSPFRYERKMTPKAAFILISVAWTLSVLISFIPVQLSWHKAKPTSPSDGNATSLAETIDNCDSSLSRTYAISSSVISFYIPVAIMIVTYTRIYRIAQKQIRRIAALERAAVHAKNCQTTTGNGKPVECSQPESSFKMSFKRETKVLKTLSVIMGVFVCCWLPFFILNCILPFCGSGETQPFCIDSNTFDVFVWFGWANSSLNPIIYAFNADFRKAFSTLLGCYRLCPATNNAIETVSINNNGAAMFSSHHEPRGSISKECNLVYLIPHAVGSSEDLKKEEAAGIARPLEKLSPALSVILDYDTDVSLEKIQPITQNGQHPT
Test Method Notes: Binding affinity to displace [3H]-SCH- 23390 against Dopamine receptor D1
Value Kind: pKi
As a rule, pKi stands for the negative log10 of the concentration, concentration in M.

Ask: Query (molecule): CN1CCc2cc(Cl)c(O)cc2[C@@H](c2cccc3ccoc23)C1 ; field requested: pKi
Result: 8.22

----------
Target Or System: D(1A) dopamine receptor (Homo sapiens, UniProt P21728)
Test Method Notes: Binding affinity to displace [3H]- SCH 23390 against Dopamine receptor D1
Entries and their Ki values follow.

Ask: Which Ki is reported for this compound? Cc1ccccc1[C@H]1CN(C)CCc2cc(Cl)c(O)cc21
Result: 0.8 nM

Ask: Next: Cc1cccc([C@H]2CN(C)CCc3cc(Cl)c(O)cc32)c1
Result: 0.4 nM

Ask: Also, CN1CCc2cc(Cl)c(O)cc2[C@H]2c3ccccc3C[C@@H]21 please.
Result: 7 nM

Ask: Request: Cc1ccc([C@H]2CN(C)CCc3cc(Cl)c(O)cc32)cc1
Result: 1.6 nM
